FYI, the data here is from ChEMBL document CHEMBL1130513.

- Species: Rattus norvegicus
- experimentDescription: In vitro inhibitory effect on D-Galactosamine induced cytotoxicity in primary cultured rat hepatocytes at 1 ug/mL
- Type: functional
- reportedConditions: Hepatocyte
property: inhibition at 1 µg/mL (%)

>>> endpointvalue("C[C@H]1O[C@@H](OC2CC[C@@]3(C)C(CC[C@]4(C)C3C=CC3=C5CC(C)(C)CC[C@]5(CO)[C@H](O)C[C@]34C)[C@]2(C)CO)[C@H](O)[C@@H](O[C@@H]2O[C@H](CO)[C@@H](O)[C@H](O)[C@H]2O)[C@H]1O (stereo not given in full)")
6.1
>>> endpointvalue("C[C@H]1O[C@@H](O[C@H]2CC[C@@]3(C)C(CC[C@]4(C)C3C=C[C@]35OC[C@@]6(CCC(C)(C)CC63)[C@H](O)C[C@]54C)[C@]2(C)CO)[C@H](O)[C@@H](O[C@@H]2O[C@H](CO)[C@@H](O)[C@H](O)[C@H]2O)[C@H]1O (stereo not given in full)")
2.3
>>> endpointvalue("C[C@@H]1O[C@@H](O[C@@H]2[C@H](O)[C@@H](O)[C@H](O[C@H]3CC[C@@]4(C)C(CC[C@]5(C)C4CC=C4C6CC(C)(C)CC[C@]6(CO)CC[C@]45C)C3(C)C)O[C@@H]2CO[C@@H]2O[C@H](CO)[C@@H](O)[C@H](O)[C@H]2O)[C@H](O)[C@H](O)[C@H]1O (stereo not given in full) [BUPLEUROSIDE XI]")
1.6
>>> endpointvalue("CO[C@@H]1C=C2C3CC(C)(C)CC[C@]3(CO)[C@@H](O)C[C@@]2(C)[C@]2(C)CCC3C(C)(C)[C@@H](O[C@@H]4O[C@H](C)[C@H](O)[C@H](O[C@@H]5O[C@H](CO)[C@@H](O)[C@H](O)[C@H]5O)[C@H]4O)CC[C@]3(C)C12 (stereo not given in full)")
64.9
>>> endpointvalue("C[C@@H]1O[C@@H](O[C@H]2[C@@H](O)[C@@H](CO[C@@H]3O[C@H](CO)[C@@H](O)[C@H](O)[C@H]3O)O[C@@H](OC3CC[C@@]4(C)C(CC[C@]5(C)C4C=CC4=C6C[C@@](C)(CO)CC[C@]6(CO)[C@H](O)C[C@]45C)[C@]3(C)CO)[C@@H]2O)[C@H](O)[C@H](O)[C@H]1O (stereo not given in full) [BUPLEUROSIDE XII]")
0.3

----------
- Species: Rattus norvegicus
- experimentDescription: In vitro inhibitory effect on D-Galactosamine induced cytotoxicity in primary cultured rat hepatocytes at 30 ug/mL
- Format: functional
- reportedConditions: Hepatocyte
Overview of recorded inhibition at 30 µg/mL for various compounds
property: inhibition at 30 µg/mL

>>> endpointvalue("C[C@H]1O[C@@H](O[C@H]2CC[C@@]3(C)C(CC[C@]4(C)C3C=C[C@]35OC[C@@]6(CCC(C)(C)CC63)[C@@H](O)C[C@]54C)[C@]2(C)CO)[C@H](O)[C@@H](O[C@@H]2O[C@H](CO)[C@@H](O)[C@H](O)[C@H]2O)[C@H]1O (some centres undefined)")
"-14.8%"
>>> endpointvalue("CC1(C)CC[C@]2(C(=O)O)CC[C@]3(C)C(=CCC4[C@@]5(C)CC[C@H](O[C@@H]6O[C@H](CO)[C@H](O)[C@H](O[C@@H]7OC[C@@H](O)[C@@H](O)[C@@H]7O[C@@H]7O[C@H](CO)[C@@H](O)[C@H](O)[C@H]7O)[C@H]6O)C(C)(C)C5CC[C@]43C)C2C1 (some centres undefined) [BUPLEUROSIDE VII1]")
"-1.4%"
>>> endpointvalue("C[C@H]1O[C@@H](O[C@H]2CC[C@@]3(C)C(CC[C@]4(C)C3[C@H](O)C=C3C5CC(C)(C)CC[C@]5(CO)[C@@H](O)C[C@]34C)[C@]2(C)CO)[C@H](O)[C@@H](O[C@@H]2O[C@H](CO)[C@@H](O)[C@H](O)[C@H]2O)[C@H]1O (some centres undefined)")
"46.5%"
>>> endpointvalue("C[C@@H]1O[C@@H](O[C@@H]2[C@H](O)[C@@H](O)[C@H](O[C@H]3CC[C@@]4(C)C(CC[C@]5(C)C4C=C[C@]46OC[C@@]7(CCC(C)(C)CC74)[C@@H](O)C[C@]65C)C3(C)C)O[C@@H]2CO[C@@H]2O[C@H](CO)[C@@H](O)[C@H](O)[C@H]2O)[C@H](O)[C@H](O)[C@H]1O (some centres undefined)")
"-1%"
